# TGI per entry
- System: HOP-92 NSCLC
- METHOD_DESCRIPTION: NCI tumour cell line growth inhibition, 48 h
Numeric only. Scale: µM

# COMPOUND, MEASURED_ATTRIBUTE, UNIT_ABBREVIATION, ASSAY_VALUE
records = [
    ("Cc1ccc2cccc(OC(=O)Nc3cccc(C(F)(F)F)c3)c2n1", "TGI", "µM", 6.66),
    ("O=c1c2ccccc2c(/C=N\\NC2=NCCN2)c2oc3ccccc3n12", "TGI", "µM", 51.1),
]

Entry NC(=S)N/N=C1\c2ccccc2-c2c(F)c(F)c(F)c(F)c21 : reported TGI = ?
19.9

Entry CCN(CC)CC(C)C(=O)/C=C/c1ccc(C)cc1 (stereo not drawn) : reported TGI = ?
4.84
